molecular target: Nuclear receptor subfamily 1 group I member 2 (Homo sapiens); test: Human pregnane X receptor (PXR) small molecule agonists, qHTS assay (AID 1346982); settings: PXR-Luc HepG2, CYP3A4 luciferase reporter, 24 h; series mostly up to 92.4 µM; further: nearly all actives have a fitted effect of over 35% in size
Results filed as inconclusive are left out. Calls of active or inactive are those of the source. The call rests on the fitted dose curve; in most records, active means well fitted activation curve with a large enough effect in the repeat runs; inconclusive means weak or mixed curves; inactive means no such curve, though single readings can be large or run the other way.
Write down the outcome that applies. Available outcomes: active, inactive

Below, 2 molecules whose answers are already recorded.
1. COc1cc(NS(=O)(=O)c2ccc(N)cc2)nc(C)n1    inactive
2. CCN(CC)c1cccc(O)c1    active

Now look at this one.
Hi, sorry to bother you, what did the test record for CC[C@H]1OC(=O)[C@H](C)[C@@H](O[C@H]2C[C@@](C)(OC)[C@@H](O)[C@H](C)O2)[C@H](C)[C@@H](O[C@@H]2O[C@H](C)C[C@H](N(C)C)[C@H]2O)[C@](C)(O)C[C@@H](C)CN(C)[C@H](C)[C@@H](O)[C@]1(C)O ?
inactive
